# reported IC50; entries follow
molecular target: PI3Kα (Homo sapiens, UniProt P42336, H1047R); assay: ADP-Glo IC50 assay; conditions: class symbols; key not given
Sequence (P42336 whole entry H1047R): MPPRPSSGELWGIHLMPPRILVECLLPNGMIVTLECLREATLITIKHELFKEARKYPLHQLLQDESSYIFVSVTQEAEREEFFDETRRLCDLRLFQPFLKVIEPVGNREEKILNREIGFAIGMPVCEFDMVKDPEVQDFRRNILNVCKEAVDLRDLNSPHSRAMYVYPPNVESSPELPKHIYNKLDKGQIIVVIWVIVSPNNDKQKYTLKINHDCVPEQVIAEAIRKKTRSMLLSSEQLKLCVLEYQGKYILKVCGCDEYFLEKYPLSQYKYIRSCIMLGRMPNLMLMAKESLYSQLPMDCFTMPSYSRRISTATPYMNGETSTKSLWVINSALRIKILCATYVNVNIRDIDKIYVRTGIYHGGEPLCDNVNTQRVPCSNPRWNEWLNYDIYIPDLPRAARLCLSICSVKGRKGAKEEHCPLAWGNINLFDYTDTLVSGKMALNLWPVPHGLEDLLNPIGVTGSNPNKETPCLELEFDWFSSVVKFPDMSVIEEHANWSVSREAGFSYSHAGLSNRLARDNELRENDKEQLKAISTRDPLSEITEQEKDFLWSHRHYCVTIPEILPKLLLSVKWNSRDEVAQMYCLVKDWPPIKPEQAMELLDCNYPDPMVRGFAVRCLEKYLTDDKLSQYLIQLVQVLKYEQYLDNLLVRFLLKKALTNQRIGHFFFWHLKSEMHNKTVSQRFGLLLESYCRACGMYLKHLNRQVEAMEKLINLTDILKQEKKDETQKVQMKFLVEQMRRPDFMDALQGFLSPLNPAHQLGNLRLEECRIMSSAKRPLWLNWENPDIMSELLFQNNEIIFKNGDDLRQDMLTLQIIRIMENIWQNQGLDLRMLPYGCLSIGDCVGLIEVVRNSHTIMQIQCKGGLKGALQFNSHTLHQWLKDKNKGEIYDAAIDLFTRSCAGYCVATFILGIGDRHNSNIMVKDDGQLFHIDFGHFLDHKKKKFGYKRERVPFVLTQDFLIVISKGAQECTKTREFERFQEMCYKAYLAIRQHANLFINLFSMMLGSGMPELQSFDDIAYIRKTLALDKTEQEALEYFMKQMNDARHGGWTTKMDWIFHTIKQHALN
Sequence (P27986 whole entry partner): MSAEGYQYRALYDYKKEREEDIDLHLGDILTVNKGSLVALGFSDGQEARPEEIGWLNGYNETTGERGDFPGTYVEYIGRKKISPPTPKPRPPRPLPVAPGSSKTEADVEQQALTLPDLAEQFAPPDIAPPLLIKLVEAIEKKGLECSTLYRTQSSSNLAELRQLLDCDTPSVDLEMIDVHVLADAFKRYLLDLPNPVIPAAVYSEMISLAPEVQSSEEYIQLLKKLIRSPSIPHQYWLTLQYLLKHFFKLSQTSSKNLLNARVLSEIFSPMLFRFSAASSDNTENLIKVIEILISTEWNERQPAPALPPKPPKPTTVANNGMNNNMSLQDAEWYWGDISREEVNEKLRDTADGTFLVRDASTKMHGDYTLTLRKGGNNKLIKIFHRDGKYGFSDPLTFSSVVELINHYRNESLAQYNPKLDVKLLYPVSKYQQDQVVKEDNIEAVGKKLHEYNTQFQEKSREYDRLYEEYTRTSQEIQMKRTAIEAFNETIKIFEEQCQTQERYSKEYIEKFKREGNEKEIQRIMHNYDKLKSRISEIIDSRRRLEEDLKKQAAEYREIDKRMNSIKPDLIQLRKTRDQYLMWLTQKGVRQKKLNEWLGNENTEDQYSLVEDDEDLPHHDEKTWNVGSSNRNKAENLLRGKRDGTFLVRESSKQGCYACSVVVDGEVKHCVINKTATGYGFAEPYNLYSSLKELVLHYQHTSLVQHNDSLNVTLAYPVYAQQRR
test.readout: IC50

| molecule | endpoint.value |
| --- | --- |
| Cc1cc([C@@H](C)Nc2ccccc2C(=O)O)c2oc(N3CCN(C(=O)CCCCCNc4cccc5c4C(=O)N(C4CCC(=O)NC4=O)C5=O)CC3)cc(=O)c2c1 (some centres unmarked) | 500 to 1000 nM |
| O=C1CCC(N2Cc3cc(C(=O)NCCCCCCCCCCNC(=O)c4cc(NC(=O)c5cccc(C(F)(F)F)c5)c5c(c4)C(=O)N[C@@H]5c4cc(F)ccc4Cl)ccc3C2=O)C(=O)N1 (some centres unmarked) | 1000 to 10000 nM |
| Cc1ccccc1Nc1ncc(C(=O)NCCOCCOCCOCCOCCC(=O)N[C@H](C(=O)N2C[C@H](O)C[C@H]2C(=O)NCc2ccc(-c3scnc3C)cc2)C(C)(C)C)cc1NC(=O)c1csc2ccccc12 | 500 to 1000 nM |
| Cc1ccccc1Nc1ncc(C(=O)NCCCNc2ccc3c(c2)C(=O)N(C2CCC(=O)NC2=O)C3=O)cc1NC(=O)c1csc2ccccc12 (centres unmarked) | < 100 nM |
| O=C1CCC(N2Cc3cc(C(=O)NCCCCCCCCCNC(=O)c4cc(NC(=O)c5cccc(C(F)(F)F)c5)c5c(c4)C(=O)N[C@@H]5c4cc(F)ccc4Cl)ccc3C2=O)C(=O)N1 (some centres unmarked) | 1000 to 10000 nM |
| Cc1ccccc1Nc1ncc(C(=O)NCCCC#Cc2ccc3c(c2)CN(C2CCC(=O)NC2=O)C3=O)cc1NC(=O)c1csc2ccccc12 (centres unmarked) | 100 to 500 nM |
| Cc1cc([C@H](C)Nc2ccccc2C(=O)O)c2oc(N3CCN(C(=O)CCC(=O)NCc4ccc5c(c4)C(=O)N(C4CCC(=O)NC4=O)C5)CC3)cc(=O)c2c1 (some centres unmarked) | 1000 to 10000 nM |
| Cc1cc([C@@H](C)Nc2ccccc2C(=O)O)c2oc(N3CCN(C(=O)CCOCCNc4ccc5c(c4)C(=O)N(C4CCC(=O)NC4=O)C5=O)CC3)cc(=O)c2c1 (some centres unmarked) | 1000 to 10000 nM |
| Cc1ccccc1Nc1ncc(C(=O)NCCCCCCCNc2ccc3c(c2)C(=O)N(C2CCC(=O)NC2=O)C3=O)cc1NC(=O)c1csc2ccccc12 (centres unmarked) | 100 to 500 nM |
| Cc1ccccc1Nc1ncc(C(=O)NCC#Cc2ccc3c(c2)CN(C2CCC(=O)NC2=O)C3=O)cc1NC(=O)c1csc2ccccc12 (centres unmarked) | < 100 nM |
| O=C1CCC(N2C(=O)c3ccc(NCCCCCNC(=O)c4cc(NC(=O)c5cc(F)cc(C(F)(F)F)c5)c5c(c4)C(=O)N[C@H]5c4cc(F)ccc4Cl)cc3C2=O)C(=O)N1 (some centres unmarked) | < 100 nM |
| NC(=O)CCCCCCCCCNC(=O)c1cc(NC(=O)c2nsc3ccccc23)c2n1CC(=O)N[C@H]2c1cc(F)ccc1Cl | < 100 nM |
| Cc1ccccc1Nc1ncc(C(=O)NCCCCCCCC(=O)NCc2ccc3c(c2)CN(C2CCC(=O)NC2=O)C3=O)cc1NC(=O)c1csc2ccccc12 (centres unmarked) | 100 to 500 nM |
| Cc1cc([C@H](C)Nc2ccccc2C(=O)O)c2oc(N3CCN(C(=O)CCCNc4cccc5c4C(=O)N(C4CCC(=O)NC4=O)C5=O)CC3)cc(=O)c2c1 (some centres unmarked) | 1000 to 10000 nM |
